- System: HCT-116
- PROTOCOL_NOTES: NCI tumour cell line growth inhibition, 48 h
The source made the active and inactive calls. Rule as the data show it: active = GI50 up to about 1.1 µM and inactive = higher.
Classes to choose from: active, inactive

Examples from the recorded data:
MOLECULE | LABEL_VALUE
CC1=C(Cl)C[C@@H](/C(C)=C\Cl)O[C@@]1(O)C(Br)Br | inactive
O=C(O)CCC/N=C(\C(=N\CCCC(=O)O)c1ccccc1)c1ccccc1 | inactive
C/C1=C\[C@H](C)C[C@H](C)OC(=O)C[C@H](c2ccc(O)cc2)NC(=O)[C@@H](Cc2c(Br)[nH]c3ccccc23)N(C)C(=O)[C@H](C)NC(=O)[C@@H](C)C1 [JASPAMIDE] | active
CC(C)CCCC(=O)CCCCCCC(=O)CCN(O)C(=O)C(N)CO (stereo not drawn) | inactive
COC(=O)C1(Cc2ccc3c(c2)CCC3)Cc2ccccc2C1O (stereo not drawn) | inactive
Oc1ccc(C[C@@H]2CN[C@H](Cc3ccc(O)c(Br)c3)CN2)cc1 | inactive
CC(=O)OCC1OC(c2c(OC(C)=O)cc(C)c3c(=O)cc(/C(C(C)=O)=C(\C)O)oc23)C(OC(C)=O)C(OC(C)=O)C1OC(C)=O (stereo not drawn) | inactive
CCc1nn(S(=O)(=O)c2ccc(C)cc2)c2c1CS(=O)(=O)CC2 | inactive
Clc1ccc(OCc2nnc(CCCCCCCCc3nnc(COc4ccc(Cl)cc4)o3)o2)cc1 | inactive
O=C(/C=C/c1ccccc1)c1cc(Br)ccc1O | inactive

# input Per the records of this test, what outcome belongs to COc1ccc(C(O)CC(O)(C(F)(F)F)C(F)(F)F)cc1 (stereo not drawn) ?
# output inactive

# input What would you report for `Cn1c(=S)[nH]c2sc3c(c2c1=O)CCSC3` ?
# output inactive

# input Further, for `O=c1n(-c2ccccc2)c(=O)n2c(-c3ccccc3)c(-c3ccccc3)n12` ?
# output inactive

====

- System: CCRF-CEM
- PROTOCOL_NOTES: NCI tumour cell line growth inhibition, 48 h
The source made the active and inactive calls. Cut-off read from the data, not from the text of the source: active = GI50 up to about 1.1 µM and inactive = higher.
READOUT_KIND: GI50

COMPOUND | EXPERIMENTAL_SYSTEM | READOUT_KIND | RESULT
Nc1nc(OCC2CCCCC2)c2nc[nH]c2n1 | CCRF-CEM | GI50 | 11.2 µM (inactive)
O=C1CC(n2cccc2)c2c(Br)sc(Br)c21 (stereo not drawn) | CCRF-CEM | GI50 | 6.35 µM (inactive)
NS(=O)(=O)c1nnc(NC(=O)N(c2ccccc2)c2ccccc2)s1 | CCRF-CEM | GI50 | 20.1 µM (inactive)

# input // GI50 lookup, key: `CCOC(=O)CN1CC(C2=C(O)CN(CC(=O)OCC)C2=O)=CC1=O`
# output > 100 µM (inactive)

====

- System: U-251
- PROTOCOL_NOTES: NCI tumour cell line growth inhibition, 48 h
Activity calls are given as the source filed them. No stated cut-off is given here; in the data, active = GI50 up to about 1.1 µM and inactive = higher.
READOUT_KIND: GI50

COMPOUND | RESULT
C[C@H](CO)C1=CC(C#C[Si](C)(C)C)N(C(=O)Oc2ccccc2)c2ccccc21 (some centres not stated) | 14.6 µM (inactive)
C=CC1=CSNN1 | > 100 µM (inactive)

Turning now to a further record.
# input GI50 lookup needed for `Cc1cc(C)nc(NS(=O)(=O)c2ccc(NC(=O)c3ccc4nc5ccccc5c(Nc5ccc(S(=O)(=O)N=C(N)N)cc5)c4c3)cc2)n1` , thanks.
# output > 100 µM (inactive)

====

- Test system: COLO 205
- PROTOCOL_NOTES: NCI tumour cell line growth inhibition, 48 h
Calls of active or inactive are those of the source. No stated cut-off is given here; in the data, active = GI50 up to about 1.1 µM and inactive = higher. Starred links: 1 amine or outer side, 2 acyl side, 3 side chain; linkers in the order of their positions; H or OH if unused. Positions of bridges follow the written chain, without caps; N, C: chain ends. Non-standard residues stand in square brackets, D forms with d. Residues, ends and D or L forms follow the SMILES beside them. Chains are numbered I, II in the order given. Actinocin(1to9) = Cc1c2oc3c(C)ccc(C(=O)[*:2])c3nc-2c(C(=O)[*:1])c(N)c1=O; NMeV = CN[CH](C(=O)O)C(C)C; Sar = CNCC(=O)O
Hello, when you answer, please use one of the following outcomes: active, inactive

Known results for compounds:
COMPOUND | LABEL_VALUE
COc1cc(NS(C)(=O)=O)ccc1N1Cc2c[nH]c3ccc4nccc1c4c23 | inactive
O1C2C1C1OC1C1OC1C1OC21 (stereo unspecified) | inactive
O=C(N/N=C/C=C/c1ccccc1)c1ccccc1Nc1ccccc1C(=O)N/N=C/C=C/c1ccccc1 | inactive
CCC(C)C1NC(=O)C(NC(=O)c2c3nc4c(C(=O)NC5C(=O)NC(C(C)CC)C(=O)N6CCCC6C(=O)N(C)CC(=O)N(C)C(C(C)C)C(=O)OC5C)ccc(C)c4oc-3c(C)c(=O)c2N)C(C)OC(=O)C(C(C)C)N(C)C(=O)CN(C)C(=O)C2CCCN2C1=O (stereo unspecified) (I: TIP[Sar][NMeV] / II: TIP[Sar][NMeV]; ester I:1-I:C, II:1-II:C; linker I:N-II:N via Actinocin(1to9); configuration not given here) | active
CC1=C(Br)C(=O)C(C)=C(Br)C1=O.Cc1c(O)c(Br)c(C)c(O)c1Br | inactive

# input Could you please tell me the result logged for C(=C\c1ccccc1)/COc1ccccc1C(N1CCOCC1)n1nc2ccccc2n1 (stereo unspecified) in this assay?
# output inactive

# input Also, `CC(C)COC(=O)OC(=O)c1ccc(N(C)Cc2cnc3nc(N)nc(N)c3n2)cc1` please.
# output inactive

# input Try this compound too: Nc1nc2c(ncn2CC2CCC(CO)C2)c(=O)[nH]1 (stereo unspecified)
# output inactive

====

- System: HL-60
- PROTOCOL_NOTES: NCI tumour cell line growth inhibition, 48 h
Calls of active or inactive are those of the source. Cut-off read from the data, not from the text of the source: active = GI50 up to about 1.1 µM and inactive = higher.
Bench note: report the call from active, inactive

# input Would you mind telling me which call this test gave `Cc1[nH]nc(C(=O)N/N=C/c2cccs2)c1/N=N\N(C)C` ?
# output inactive

# input Cool, now `O=C(N/C(=C/c1cccc([N+](=O)[O-])c1)c1nc2cc(Cl)ccc2[nH]1)c1ccccc1`
# output inactive

====

- System: UACC-257
- PROTOCOL_NOTES: NCI tumour cell line growth inhibition, 48 h
The source made the active and inactive calls. Rule as the data show it: active = GI50 up to about 1.1 µM and inactive = higher.
Returns: one label drawn from 1 (active), -1 (inactive)

# input Please state the recorded outcome for this compound: `O=C(O)/C=N/NC(=S)NC1CCCCC1`
# output -1

====

- Test system: OVCAR-8
- PROTOCOL_NOTES: NCI tumour cell line growth inhibition, 48 h
Activity calls are given as the source filed them. Cut-off read from the data, not from the text of the source: active = GI50 up to about 1.1 µM and inactive = higher.
READOUT_KIND: GI50

// worked examples, GI50 included
MOLECULE | GI50
CCC(=O)O[C@@H]1C2C(OC(C)=O)C34COC(C)([C@@H]3C3C(C[C@]3(C)OC(C)=O)[C@@H](OC(=O)c3ccccc3)C4=O)[C@H](OC(C)=O)[C@@]2(OC(C)=O)C[C@@H]1C (stereo partly drawn) | 95.5 µM (inactive)
NC1c2c(Cl)sc(Cl)c2C(=O)C1O (stereo not drawn) | 25.9 µM (inactive)

Switching to the query record.
# input Given the entry `CCNC1=Nc2ccccc2-n2c(nn3nc4ccccc4c23)N1CC` , report its measured GI50.
# output > 100 µM (inactive)

====

- Test system: 786-0
- PROTOCOL_NOTES: NCI tumour cell line growth inhibition, 48 h
Calls of active or inactive are those of the source. Cut-off read from the data, not from the text of the source: active = GI50 up to about 1.1 µM and inactive = higher.
Give your call using only these classes: active, inactive

For orientation, consider the following solved cases.
COMPOUND | LABEL_VALUE
Cc1cc(=O)oc2cc(O)ccc12 [HYMECROMONE] | inactive
COC(=O)C1OC(O[C@H]2CC[C@]3(C)[C@H]4CC=C5[C@@H]6CC(C)(C)CC[C@]6(C(=O)OC)[C@H](O)C[C@@]5(C)[C@]4(C)CC[C@H]3C2(C)C)C(O)C(O)C1O (some centres undefined) | inactive
CCC1=CC2Cc3nc4cc(Cl)ccc4c(N)c3C(C1)C2 (centres undefined) | inactive
O=c1n(-c2ccccc2)c(=O)n2c(-c3ccccc3)c(-c3ccccc3)n12 | inactive
Nc1ccn(CCCC(c2ccccc2)P(=O)(O)O)c(=O)n1 (centres undefined) | inactive
Cn1c(=S)[nH]c2sc3c(c2c1=O)CCSC3 | inactive
C[C@@H]1CC2(C[C@@H](C)C3[C@@H](CC4(C)CCCC5C6=CC(O)(CC[C@]34C)OC6=CC(=O)OC5(C)C)O2)OC1=O (some centres undefined) | inactive
N#C/C(N)=C(C#N)/N=C/N | inactive

# input For this compound, state the assay outcome: `Cc1[nH]c2ncn3nc(C(Cl)(Cl)Cl)nc3c2c1Cc1ccccc1`
# output inactive

# input Same lookup for COc1ccc(CC2c3cc(OC)c(OC)c(OC)c3CC[N+]2(C)C)cc1Oc1ccc(CC2c3cc4c(c(OC)c3CCN2C)OCO4)cc1 (centres undefined) , please.
# output inactive

# input Next entry: `CSc1ccc2c(cc1=O)[C@@H](NC(=O)c1ccc(Cl)cc1)CCc1cc(O)c(O)c(O)c1-2`
# output inactive

# input Can you check `O=S(=O)(CC#CCS(=O)(=O)c1ccccc1)c1ccccc1` next?
# output active

# input Proceed to `Cc1nc2nn(C)cc2c(=O)n1/N=C/c1ccccc1`
# output inactive

# input Follow-up entry: `CNC(=O)N(CCC#N)CCCN(C(=O)NC)c1ccccc1`
# output inactive
